assay: Regional brain uptake with and without preblocking by paroxetine or GBR 12909 (Table 5); format: in vivo, Sprague Dawley rats; conditions: rat, cortex, iv, 60 min, serotonin blocker paroxetine 5 mg/kg i.v. 15 min prior, read-out: Cortex uptake
property-label: tissue uptake at 1 h (%ID/g)
Please give a number only; it is taken to be in %ID/g.

// query tissue uptake at 1 h value for entry [123I]c1ccc([C@@H]2CN3CCC[C@@H]3c3ccccc32)cc1 [95% ee(6S, 10bR)-I-McN]
1.8

----------
experiment: Regional brain distribution of radioactivity after intravenous administration (Table 4); type: in vivo, Sprague-Dawley rats; conditions: cerebellum, iv; rat, i.v., 5 min, mean of three rats; read-out: Cerebellum, mean % injected dose/gram
property-label: tissue uptake at 5 min (%ID/g)
Report the figure in %ID/g without appending any unit label.

Please look up its tissue uptake at 5 min: [123I]c1ccc([C@@H]2CN3CCC[C@@H]3c3ccccc32)cc1 [(+)-[^123 I]6]
1.23

----------
assay: Regional brain uptake with and without preblocking by paroxetine or GBR 12909 (Table 5); assay type: in vivo, Sprague Dawley rats; conditions: rat, cerebellum, iv, 60 min, no blocker, read-out: Cerebellum uptake
property-label: tissue uptake at 1 h (%ID/g)
The answer is to be given in %ID/g; state only the numeric part.

Fill in: tissue uptake at 1 h of [123I]c1ccc([C@@H]2CN3CCC[C@@H]3c3ccccc32)cc1 [95% ee(6S, 10bR)-I-McN] is ___
0.46

----------
assay: Regional brain uptake with and without preblocking by paroxetine or GBR 12909 (Table 5); format: in vivo, Sprague Dawley rats; conditions: rat, striatum, iv, 60 min, no blocker, read-out: Striatum uptake
property-label: tissue uptake at 1 h (%ID/g)
Response body: numeric value in %ID/g, unit text excluded.

Endpoint output: tissue uptake at 1 h of [123I]c1ccc([C@@H]2CN3CCC[C@@H]3c3ccccc32)cc1 [95% ee(6S, 10bR)-I-McN] . Value?
2.21

----------
assay: Regional brain distribution of radioactivity after intravenous administration (Table 4); type: in vivo, Sprague-Dawley rats; conditions: striatum, iv; rat, i.v., 30 min, mean of three rats; read-out: Striatum, mean % injected dose/gram
property-label: tissue uptake at 0.5 h
Field: value (include unit after the number)

// returns reported tissue uptake at 0.5 h for input [123I]c1ccc([C@@H]2CN3CCC[C@@H]3c3ccccc32)cc1 [(+)-[^123 I]6]
2.46 %ID/g

----------
# key: entry, value: pKi
target: human norepinephrine transporter (Homo sapiens, UniProt P23975); test: Binding site inhibition in HEK-293 cell membranes transfected with human norepinephrine transporter ([3H]Nisoxetine); details: HEK-293 cells, human NE transporter; vs. [3H]Nisoxetine
Sequence (P23975 whole entry): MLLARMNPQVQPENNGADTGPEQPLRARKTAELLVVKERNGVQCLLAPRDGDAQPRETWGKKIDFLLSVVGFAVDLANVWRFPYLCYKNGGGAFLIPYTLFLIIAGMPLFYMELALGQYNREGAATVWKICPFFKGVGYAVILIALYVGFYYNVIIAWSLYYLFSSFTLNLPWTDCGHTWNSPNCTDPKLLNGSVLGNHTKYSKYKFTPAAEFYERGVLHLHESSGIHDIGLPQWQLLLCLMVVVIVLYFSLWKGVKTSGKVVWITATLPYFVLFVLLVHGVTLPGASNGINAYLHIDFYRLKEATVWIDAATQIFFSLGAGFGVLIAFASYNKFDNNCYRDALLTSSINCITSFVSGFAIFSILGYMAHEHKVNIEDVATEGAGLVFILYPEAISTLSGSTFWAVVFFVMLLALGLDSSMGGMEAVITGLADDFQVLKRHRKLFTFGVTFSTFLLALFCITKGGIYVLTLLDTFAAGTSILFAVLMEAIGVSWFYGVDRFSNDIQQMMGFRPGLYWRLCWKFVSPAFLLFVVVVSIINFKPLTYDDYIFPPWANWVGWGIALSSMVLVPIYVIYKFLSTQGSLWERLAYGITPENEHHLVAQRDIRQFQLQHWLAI
pKi field: float, defined as -log10 of concentration (mol/L).

Worked examples follow.
molecule="Fc1cccc2c1[C@H]1CCCN1C[C@H]2c1ccc(Br)cc1 (relative stereo) [racemic Br, X = F at position 10]" property_label=pKi recorded_value=8.30
molecule="Ic1ccc([C@@H]2CN3CCC[C@@H]3c3ccccc32)cc1 (relative stereo) [compound 6]" property_label=pKi recorded_value=8.00

I am curious: what pKi value has been reported for Ic1ccc([C@@H]2CN3CCC[C@@H]3c3ccccc32)cc1 [compound 6, trans (95% ee) (6S, 10bR)] ?
8.00

Recorded pKi of Brc1ccc([C@@H]2CN3CCC[C@@H]3c3ccccc32)cc1 (relative stereo) [racemic Br] , please.
8.64

What does the data say about its pKi? Entry: COC(=O)[C@H]1[C@@H](c2ccc(I)cc2)C[C@@H]2CC[C@H]1N2C [RTI-55 (CIT), reference compound]
7.41

Fill in: pKi of FCC#Cc1ccc([C@@H]2CN3CCC[C@@H]3c3ccccc32)cc1 (relative stereo) [racemic C=CCH2 F] is ___
7.62
